- subjectOfTest: human KHK-A (Homo sapiens (Human), UniProt P50053)
- protocolText: KHK Biochemical Assay (IC50), ADP-Glo, KHK-A
- settings: ADP-Glo; average of at least two separate assays
recordedMetric: IC50 (nM)

compound="C[C@H]1CCN1c1nc2c(c(-c3ccc4c(c3)CC(C(=O)O)C4)n1)CCC2 (some centres unmarked) [Example 139]" recordedmetric=IC50 experimentalresult=85.8
compound="C[C@H]1[C@H](O)CN1c1nc2c(c(-c3cccc(C4CC4C(=O)O)c3)n1)CCC2 (some centres unmarked) [Example 47]" recordedmetric=IC50 experimentalresult=29.4
compound="CC(=O)Nc1cccc(-c2nc(N3C[C@@H](O)[C@@H]3C)nc3c2CCC3)c1 [Example 41]" recordedmetric=IC50 experimentalresult=102

[1] C[C@H]1CCN1c1nc2c(c(-c3ccc(C(N)=O)c(NS(C)(=O)=O)c3)n1)CCC2 [Example 320]
[2] C[C@@H]1CN(c2nc3c(c(-c4ccc(C(N)=O)cc4)n2)CCC3)[C@@H]1C [Example 109]
[3] C[C@H]1[C@H](O)CN1c1nc2c(c(-c3ccc4cnc(O)cc4c3)n1)CCC2 [Example 388]
[4] c1ccc(-c2nc(C3CC3)nc3c2CCC3)cc1 [Example 96]
[5] C[C@H]1[C@H](F)CN1c1nc2c(c(-c3ccc(CN)cc3)n1)CCC2 [Example 201]
Please produce an ascending ranking of these compounds based on IC50. Form field (ranking): labels in requested order.
5, 3, 1, 2, 4

----------
- subjectOfTest: human KHK-C (Homo sapiens (Human))
- protocolText: KHK Biochemical Assay (IC50), ADP-Glo, KHK-C
- settings: average of at least two separate assays
recordedMetric: IC50 (nM)

molecule="C[C@H]1CCN1c1nc2c(c(-c3ccc4c(c3)C3C(C4)C3C(=O)O)n1)CCC2 (stereo partly shown)" experimentalresult=41.3

[1] CCC1CNC(=O)c2ccc(-c3nc(N4C[C@@H](O)[C@@H]4C)nc4c3CCC4(F)F)cc2O1 (stereo partly shown)
[2] C[C@H]1[C@H](O)CN1c1nc(-c2cccc(CN3CCCS3(=O)=O)c2)c2c(n1)C(F)(F)CC2
[3] C[C@H]1CCN1c1nc2c(c(-c3cccc([S+](C)[O-])c3)n1)CCC2 (stereo in doubt)
Please produce an ascending ranking of these molecules based on IC50. Form field (ranking): labels in requested order.
1, 2, 3

----------
- subjectOfTest: human KHK-A (Homo sapiens (Human), UniProt P50053)
- protocolText: KHK Biochemical Assay (IC50), ADP-Glo, KHK-A
- settings: ADP-Glo; average of at least two separate assays
pIC50: −log10 of the molar value.
recordedMetric: pIC50

compound="C[C@H]1[C@H](F)CN1c1nc2c(c(-c3cccc(CNS(C)(=O)=O)c3)n1)CCC2 [Example 284]" experimentalresult=7.66
compound="C[C@H]1[C@H](O)CN1c1nc(-c2ccc3c(c2)[S@](=N)(=O)CCO3)c2c(n1)C(F)(F)CC2 (single isomer, unassigned) [Example 820]" experimentalresult=7.84

[1] COc1ccc(-c2nc(N3CC[C@@H]3C)nc3c2CCC3)cc1S(=N)(=O)c1ccc(C#N)cc1 (stereo partly shown) [Example 851]
[2] C[C@H]1CCN1c1nc2c(c(-c3cc4c(C(=O)O)cccc4[nH]3)n1)CCC2 [Example 155]
Between item 1 and item 2 , which reported pIC50 is smaller? In your reply, give the label of the chosen option.
2
(2: 6.64, 1: 8.00)

----------
- subjectOfTest: human KHK-A (Homo sapiens (Human))
- protocolText: KHK Biochemical Assay (IC50), ADP-Glo, KHK-A
- settings: average of at least two separate assays
pIC50: −log10 of the molar value.
recordedMetric: pIC50

molecule=C[C@H]1CCN1c1nc2c(c(-c3ccc4c(=O)[nH]ncc4c3)n1)CCC2 experimentalresult=7.75

[1] CC1OCC2(COc3cc(-c4nc(N5C[C@@H](O)[C@@H]5C)nc5c4CCC5(F)F)ccc32)NC1=O (stereo partly drawn)
[2] NC1(c2ccc(-c3nc(N4CC[C@@H]4C(F)(F)F)nc4c3CCC4(F)F)cc2)CCOC1 (stereo partly drawn)
[3] C[C@H]1CCN1c1nc2c(c(-c3ccc4c(c3)[C@]3(C[C@H]3c3nc[nH]n3)C(=O)N4)n1)CCC2
[4] C[C@H]1[C@H](O)CN1c1nc(-c2ccc3c(c2)OCC32NC(=O)N(C3COC3)C2=O)c2c(n1)C(F)(F)CC2 (stereo partly drawn)
Please produce an ascending ranking of these molecules based on pIC50. Form field (ranking): labels in requested order.
3, 4, 1, 2

----------
- subjectOfTest: human KHK-C (Homo sapiens (Human))
- protocolText: KHK Biochemical Assay (IC50), ADP-Glo, KHK-C
- settings: average of at least two separate assays
recordedMetric: IC50 (nM)

compound="C[C@H]1[C@H](O)CN1c1nc(-c2ccc(C3(N)CCOC3)cc2)c2c(n1)C(F)(F)CC2 (some centres unmarked)" unitabbreviation=nM experimentalresult=1.5
compound="C[C@H]1CCN1c1nc(-c2ccc(C(N)CS(C)(=O)=O)cc2)c2c(n1)C(F)(F)CC2 (some centres unmarked)" unitabbreviation=nM experimentalresult=2.1
compound=C[C@H]1CCN1c1nc2c(c(-c3cn(C4CNC4)nn3)n1)CCC2 unitabbreviation=nM experimentalresult=17.2
compound=C[C@H]1C[C@H](C)N1c1nc(-c2ccc(C3(N)COC3)cc2)c2c(n1)C(F)(F)CC2 unitabbreviation=nM experimentalresult=2.3
compound="C[C@H]1CCN1c1nc(-c2ccc([C@H](N)CS(C)(=O)=O)cc2)c2c(n1)C(F)(F)CC2 (single isomer, unassigned)" unitabbreviation=nM experimentalresult=4.3
compound="COc1cc(-c2nc(N3C[C@@H](O)[C@@H]3C)nc3c2CCC3(F)F)cc2c1[C@@H](NS(C)(=O)=O)CO2 [Example 529]" unitabbreviation=nM experimentalresult=2.7
compound="C[C@H]1[C@H](O)CN1c1nc(-c2ccc3c(c2)CC2OC(=O)NC32)c2c(n1)C(F)(F)CC2 (some centres unmarked)" unitabbreviation=nM experimentalresult=8.6
compound=NC(=O)c1ccc(-c2nc(N3CCC3)nc3c2CCC3)cc1 unitabbreviation=nM experimentalresult=2470

[P] C[C@H]1[C@H](O)CN1c1nc(-c2ccc3c(c2)CC[C@]32COC(=O)N2)c2c(n1)C(F)(F)CC2 (single isomer, unassigned)
[Q] C[C@H]1[C@H](O)CN1c1nc(-c2cc(F)c3c(c2)OCCNC3=O)c2c(n1)C(F)(F)CC2
Select one: P or Q . Criterion: greater recorded IC50. In your reply, give the label of the chosen option.
P
(P: 15 nM, Q: 7.4 nM)

----------
- subjectOfTest: KHK-C expressed in NRK-52E cells (Homo sapiens (Human))
- Sequence (P50053 whole entry): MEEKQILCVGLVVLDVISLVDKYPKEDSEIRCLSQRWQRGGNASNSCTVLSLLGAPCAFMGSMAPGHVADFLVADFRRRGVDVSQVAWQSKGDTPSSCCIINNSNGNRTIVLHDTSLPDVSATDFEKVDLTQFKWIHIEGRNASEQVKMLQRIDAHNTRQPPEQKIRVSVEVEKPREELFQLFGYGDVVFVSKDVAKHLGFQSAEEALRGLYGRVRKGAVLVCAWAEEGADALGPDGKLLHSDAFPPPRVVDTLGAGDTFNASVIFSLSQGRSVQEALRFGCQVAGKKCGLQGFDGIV
- protocolText: KHK-C Cell-based Assay (EC50), NRK CTG, fructose-mediated ATP-depletion
pEC50: −log10 of the molar value.
recordedMetric: pEC50

Record excerpt, results attached:
molsmiles=CNCc1cccc(-c2nc(N3CC[C@@H]3C)nc3c2CCC3)c1 subjectoftest="KHK-C expressed in NRK-52E cells (Homo sapiens (Human))" experimentalresult=7.88
molsmiles=C[C@H]1[C@H](F)CN1c1nc2c(c(-c3ccc(C(N)=O)s3)n1)CCC2 subjectoftest="KHK-C expressed in NRK-52E cells (Homo sapiens (Human))" experimentalresult=8.02
molsmiles=C[C@H]1CCN1c1nc2c(c(-c3cn4ccnc4s3)n1)CCC2 subjectoftest="KHK-C expressed in NRK-52E cells (Homo sapiens (Human))" experimentalresult=7.06

[a] C[C@H]1CNC(=O)c2ccc(-c3nc(N4C[C@@H](O)[C@@H]4C)nc4c3CCC4(F)F)cc2O1
[b] C[C@H]1[C@H](O)CN1c1nc2c(c(-c3ccc4c(c3)OCCNC4=O)n1)CCC2
[c] C[C@H]1CCN1c1nc2c(c(-c3ccc(C(N)=O)cn3)n1)CCC2
Place the items in sequence of falling pEC50. Form field (ranking): labels in requested order.
a, b, c

----------
- subjectOfTest: KHK-C expressed in NRK-52E cells (Homo sapiens (Human))
- protocolText: KHK-C Cell-based Assay (EC50), NRK CTG, fructose-mediated ATP-depletion
- settings: read-out: NRK CTG EC50; NRK-52E cells, fructose-mediated ATP-depletion, Cell-Titer Glo
recordedMetric: pEC50
When answering, recall that pEC50 equals minus log10 of the concentration in mol/L, and write that number alone.

Please report the measured pEC50 for C[C@@H]1CN(c2nc3c(c(-c4ccc(C(N)=O)cc4)n2)CCC3)[C@H]1C tested on KHK-C expressed in NRK-52E cells (Homo sapiens (Human)).
6.68

----------
- subjectOfTest: human KHK-C (Homo sapiens (Human), UniProt P50053)
- Sequence (P50053 whole entry): as above
- protocolText: KHK Biochemical Assay (IC50), ADP-Glo, KHK-C
- settings: average of at least two separate assays
pIC50: −log10 of the molar value.
recordedMetric: pIC50

[P] CCOc1ccc(-c2nc(N3C[C@@H](O)[C@@H]3C)nc3c2CCC3(F)F)cc1S(N)(=O)=O
[Q] C[C@H]1CCN1c1nc2c(c(-c3ccc4c(=O)n(C)ccc4c3)n1)CCC2
Between item P and item Q , which reported pIC50 is smaller? In your reply, give the label of the chosen option.
Q
(Q: 7.17, P: 8.26)

[A] C[C@H]1CCN1c1nc(-c2ccc3c(c2)S(=O)(=O)CC3N)c2c(n1)C(F)(F)CC2 (stereo partly shown)
[B] CC[C@H]1CNC(=O)c2ccc(-c3nc(N4C[C@@H](O)[C@@H]4C)nc4c3CCC4(F)F)cc2O1 (single isomer, unassigned)
Select one: A or B . Criterion: greater recorded pIC50. In your reply, give the label of the chosen option.
A
(A: 8.77, B: 8.14)
